System: PPARg:RXRa 90nM:30nM, anti-RXR (NR concentration 90 nM, RXRa partner concentration 30 nM)
assay_remarks: PBM binding z-score (relative to random genomic background probes); higher = stronger binding; sequences stand for … in GC…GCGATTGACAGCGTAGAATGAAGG
readout_name: PBM binding z-score
Answers are plain numbers.

Some solved cases for reference:
Please indicate recorded PBM binding z-score of CCTACTGGGCCAAGGTCACTGATCAGTCAAAGCA measured with PPARg:RXRa 90nM:30nM, anti-RXR (NR concentration 90 nM, RXRa partner concentration 30 nM).
3.93

Please indicate recorded PBM binding z-score of CCTTGCGGGTCACTCCAGGTTATAGCATCGGAGT measured with PPARg:RXRa 90nM:30nM, anti-RXR (NR concentration 90 nM, RXRa partner concentration 30 nM).
3.35

Please indicate recorded PBM binding z-score of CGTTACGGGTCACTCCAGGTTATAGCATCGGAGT measured with PPARg:RXRa 90nM:30nM, anti-RXR (NR concentration 90 nM, RXRa partner concentration 30 nM).
2.69

Others:
Please indicate recorded PBM binding z-score of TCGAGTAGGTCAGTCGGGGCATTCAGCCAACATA measured with PPARg:RXRa 90nM:30nM, anti-RXR (NR concentration 90 nM, RXRa partner concentration 30 nM).
2.2
